tested-target: Recombinant human PKC-delta (His-tagged 345-676) (Homo sapiens)
Construct: PKC-delta (His-tagged 345-676); His
Sequence (Q05655 345-676): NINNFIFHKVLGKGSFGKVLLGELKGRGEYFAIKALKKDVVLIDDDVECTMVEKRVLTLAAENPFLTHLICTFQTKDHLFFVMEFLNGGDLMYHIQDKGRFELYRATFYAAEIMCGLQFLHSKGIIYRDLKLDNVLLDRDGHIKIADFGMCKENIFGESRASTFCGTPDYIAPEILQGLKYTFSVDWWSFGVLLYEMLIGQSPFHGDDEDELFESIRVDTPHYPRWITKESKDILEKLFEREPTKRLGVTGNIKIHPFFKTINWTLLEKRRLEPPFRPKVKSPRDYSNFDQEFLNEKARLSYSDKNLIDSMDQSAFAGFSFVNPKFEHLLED
protocol-notes: PKC-delta inhibition assay (HTRF KinEASE kit)
Type: biochemical
condition-details: ratio, PKC-theta vs PKC-delta HTRF
Where a name gives a salt, the structure may show the parent alone.
reported-endpoint: PKC-theta/PKC-delta selectivity
Provide a numeric answer; units are not to be included.

As a guide, the following entries are already answered.
- compound: "CC1(C)C(=O)Nc2nccc(-c3cccc(N4CCNCC4)n3)c21 [Example 38]"
  PKC-theta/PKC-delta selectivity: 4
- compound: "CC1(C)CN(c2cc(C(F)(F)F)cc(-c3ccnc4c3[C@](C)(O)C(=O)N4)n2)CCN1 (single isomer, unassigned) [Example 134]"
  PKC-theta/PKC-delta selectivity: 10
- compound: "CC[C@@H]1CNCCN1c1cc(C(F)(F)F)cc(-c2ccnc3c2[C@](C)(O)C(=O)N3)n1 (single isomer, unassigned) [Example 129]"
  PKC-theta/PKC-delta selectivity: 3
- compound: "C[C@H]1CNCCN1c1cccc(-c2ccnc3[nH]c(=O)[nH]c23)c1 [Example 8, dihydrochloride]"
  PKC-theta/PKC-delta selectivity: 2
- compound: "CN1CCN(c2cc(C(F)(F)F)cc(-c3ccnc4c3C(C)(C)C(=O)N4)n2)CC1 [Example 99]"
  PKC-theta/PKC-delta selectivity: 22

Look up and state reported PKC-theta/PKC-delta selectivity for CC[C@@]1(C)C(=O)Nc2nccc(-c3cc(C(C)(F)F)cc(N4CCCNCC4)n3)c21 (single isomer, unassigned) [Example 206] 23

Name the recorded PKC-theta/PKC-delta selectivity of the item O=C1Cc2c(-c3cccc(N4CCNCC4)c3)ccnc2N1 [Example 4] in your answer. 8

Input COC[C@@H]1CN(c2cc(C(F)(F)F)cc(-c3ccnc4c3C(C)(C)C(=O)N4)n2)CCN1 [Example 120] , output reported PKC-theta/PKC-delta selectivity. 15

Indicate the recorded PKC-theta/PKC-delta selectivity value for this compound: CC1(C)C(=O)Nc2nccc(-c3cc(Cl)cc(N4CCNCC4)n3)c21 [Example 65] 14

// Input: CC1(C)C(=O)Nc2nccc(-c3cc(Cl)cc(N4CCNCC4)c3)c21 [Example 40] . Output its PKC-theta/PKC-delta selectivity only. 4

Identify PKC-theta/PKC-delta selectivity associated with the compound C[C@]1(O)C(=O)Nc2nccc(-c3cc(F)cc(N4CCNCC4)c3)c21 (single isomer, unassigned) [Example 62] 5

----------
tested-target: Recombinant human PKC-delta (His-tagged 345-676) (Homo sapiens)
Construct: PKC-delta (His-tagged 345-676); His
protocol-notes: PKC-delta inhibition assay (HTRF KinEASE kit)
Assay type: biochemical
condition-details: ratio, PKC-theta vs PKC-delta HTRF
reported-endpoint: PKC-theta/PKC-delta selectivity

- compound: "CC1(C)C(=O)Nc2nccc(-c3cccc(N4CCNCC4)c3)c21"
  PKC-theta/PKC-delta selectivity: 2
- compound: "CC1C(=O)Nc2nccc(-c3cccc(C(=O)N4CCNCC4)c3)c21 (stereo not shown)"
  PKC-theta/PKC-delta selectivity: 1
- compound: "O=C1Nc2nccc(-c3cc(F)cc(N4CCNCC4)c3)c2C12CCC2"
  PKC-theta/PKC-delta selectivity: 3
- compound: "CC1(C)C(=O)Nc2nccc(-c3cc(N4CCNCC4)cc(C(F)(F)F)c3)c21"
  PKC-theta/PKC-delta selectivity: 5
- compound: "C[C@@H]1CN(c2cc(Cl)cc(-c3ccnc4c3[C@](C)(O)C(=O)N4)n2)CCN1 (single isomer, unassigned)"
  PKC-theta/PKC-delta selectivity: 17
- compound: "CCC1(C)C(=O)Nc2nccc(-c3cc(Cl)cc(N4CCN[C@@H](C)C4)n3)c21 (stereo partly shown)"
  PKC-theta/PKC-delta selectivity: 10
- compound: "CC[C@]1(C)C(=O)Nc2nccc(-c3cc(C(C)(F)F)cc(N4CCN[C@@H](C)C4)n3)c21 (single isomer, unassigned)"
  PKC-theta/PKC-delta selectivity: 16
- compound: "C[C@H]1CN(c2cc(-c3ccnc4c3[C@@](C)(O)C(=O)N4)cc(C(F)(F)F)c2)CCN1 (single isomer, unassigned) [Example 81]"
  PKC-theta/PKC-delta selectivity: 9
- compound: "C[C@H]1CN(c2cc(Cl)cc(-c3ccnc4c3C(C)(O)C(=O)N4)n2)CCN1 (stereo partly shown) [Example 208]"
  PKC-theta/PKC-delta selectivity: 12
- compound: "C[C@H]1CN(c2cccc(-c3ccnc4c3C(C)(C)C(=O)N4)c2)CCN1"
  PKC-theta/PKC-delta selectivity: 2

Give a short answer stating reported PKC-theta/PKC-delta selectivity for CC[C@@]1(C)C(=O)Nc2nccc(-c3cc(C(F)(F)F)cc(N4CCN[C@@H](C)C4)n3)c21 (single isomer, unassigned) . 19

Return the recorded PKC-theta/PKC-delta selectivity value; entry: CC1(C)C(=O)Nc2nccc(-c3cc(F)cc(N4CCNCC4)c3)c21 1

// Input: CC1(C)C(=O)Nc2nccc(-c3cc(C(F)(F)F)cc(N4CC5CCC4CN5)n3)c21 (stereo not shown) . Output its PKC-theta/PKC-delta selectivity only. 16

Input CC1(C)C(=O)Nc2nccc(-c3nc(N4CCNCC4)c(F)cc3Cl)c21 , output reported PKC-theta/PKC-delta selectivity. 5

Check the records and state PKC-theta/PKC-delta selectivity for C[C@@]1(O)C(=O)Nc2nccc(-c3cc(C(F)(F)F)cc(N4CC5CCC4CN5)n3)c21 (single isomer, unassigned) 16

Please report PKC-theta/PKC-delta selectivity for the following compound: CC1(O)C(=O)Nc2nccc(-c3cc(C(F)(F)F)cc(N4CCNCC4)n3)c21 (stereo not shown) 12
